MEASUREMENT TARGET: Inadl_4, Q8NI35
Sequence (Q8NI35 547-651): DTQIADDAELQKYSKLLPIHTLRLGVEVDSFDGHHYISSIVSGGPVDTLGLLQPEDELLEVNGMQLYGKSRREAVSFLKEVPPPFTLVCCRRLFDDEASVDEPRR
METHOD NOTES: holdup assay
Set-up: key: below the threshold = too weak to quantify, mostly under pKd 3.1 to 4
STATED CONDITIONS: plain residues with an end cap or a label only (N-terminal biotin on a linker: ado-ado)
MEASURED QUANTITY: pKd

BINDER	RESULT
QGPVETESVV [SLC45A4, Q5BKX6]	3.63
RRISSLESEV [GRIN2C, Q14957]	below the threshold
SSALYGESDL [ACTN2, P35609]	below the threshold
EKKTLIGIKL [GOT1L1, Q8NHS2]	below the threshold
